Entries and their melting point values follow.

[
  {
    "SAMPLE_SMILES": "Cc1cc(C#N)cc(C(=O)Nc2ccc(F)cn2)n1",
    "MEASUREMENT_UNIT": "°C",
    "melting point": 204.5
  },
  {
    "SAMPLE_SMILES": "Cc1cc(C#N)cc(C(=O)Nc2ccc(Cl)cn2)n1",
    "MEASUREMENT_UNIT": "°C",
    "melting point": 233.5
  },
  {
    "SAMPLE_SMILES": "Cc1cc(C#N)cc(C(=O)Nc2cccc(C(F)(F)F)c2)n1",
    "MEASUREMENT_UNIT": "°C",
    "melting point": 167
  },
  {
    "SAMPLE_SMILES": "N#Cc1cc(CO)nc(C(=O)Nc2ccc(F)cn2)c1",
    "MEASUREMENT_UNIT": "°C",
    "melting point": 232.5
  },
  {
    "SAMPLE_SMILES": "Cc1cc(NC(=O)c2cc(C#N)cc(C)n2)ccn1",
    "MEASUREMENT_UNIT": "°C",
    "melting point": 302
  }
]

---

// each record: one item and its log10 of Ki for UniProtKB P41594
Sequence (P41594 21-1180 isoform P41594-2 limits assumed): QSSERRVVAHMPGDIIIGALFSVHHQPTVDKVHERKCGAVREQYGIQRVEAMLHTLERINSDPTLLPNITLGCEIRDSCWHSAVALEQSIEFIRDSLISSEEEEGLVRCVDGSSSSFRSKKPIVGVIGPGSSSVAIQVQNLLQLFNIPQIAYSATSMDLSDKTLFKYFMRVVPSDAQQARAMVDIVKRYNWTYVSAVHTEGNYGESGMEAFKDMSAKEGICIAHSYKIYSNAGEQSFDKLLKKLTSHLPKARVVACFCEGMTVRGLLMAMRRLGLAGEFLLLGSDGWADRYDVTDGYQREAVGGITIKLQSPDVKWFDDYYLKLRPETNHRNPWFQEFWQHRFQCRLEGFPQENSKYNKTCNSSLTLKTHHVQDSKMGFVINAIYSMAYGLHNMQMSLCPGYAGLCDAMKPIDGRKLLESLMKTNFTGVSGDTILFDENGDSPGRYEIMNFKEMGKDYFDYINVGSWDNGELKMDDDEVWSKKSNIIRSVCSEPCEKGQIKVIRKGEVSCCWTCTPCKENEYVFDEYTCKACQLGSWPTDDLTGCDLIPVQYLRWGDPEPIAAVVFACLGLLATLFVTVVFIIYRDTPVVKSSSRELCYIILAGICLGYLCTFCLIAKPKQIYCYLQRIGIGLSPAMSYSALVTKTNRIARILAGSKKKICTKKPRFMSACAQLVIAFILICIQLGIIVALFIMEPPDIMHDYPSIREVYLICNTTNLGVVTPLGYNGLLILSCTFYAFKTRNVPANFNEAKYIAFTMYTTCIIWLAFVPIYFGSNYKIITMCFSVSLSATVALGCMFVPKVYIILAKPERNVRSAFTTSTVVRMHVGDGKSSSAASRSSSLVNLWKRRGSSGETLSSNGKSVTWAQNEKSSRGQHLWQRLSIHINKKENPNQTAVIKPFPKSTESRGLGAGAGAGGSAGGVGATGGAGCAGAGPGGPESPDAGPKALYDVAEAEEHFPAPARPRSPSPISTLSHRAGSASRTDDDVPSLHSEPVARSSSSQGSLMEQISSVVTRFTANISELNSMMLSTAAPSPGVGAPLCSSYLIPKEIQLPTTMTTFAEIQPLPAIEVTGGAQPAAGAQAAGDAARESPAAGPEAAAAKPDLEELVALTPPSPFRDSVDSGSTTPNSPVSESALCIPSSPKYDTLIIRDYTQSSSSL
OUTCOME_MEASURE: log10 of Ki (log10 of the value in nM)

[
  {
    "SAMPLE_SMILES": "Cc1cc(Cl)cc(C(=O)Nc2ccn(C)n2)n1",
    "MEASURED_ON": "UniProtKB P41594",
    "log10 of Ki": 1.86
  },
  {
    "SAMPLE_SMILES": "Cc1cccc(NC(=O)c2cc(C#N)cc(C)n2)c1",
    "MEASURED_ON": "UniProtKB P41594",
    "log10 of Ki": 0.95
  },
  {
    "SAMPLE_SMILES": "Cc1cc(C#N)cc(C(=O)Nc2cccc(F)c2)n1",
    "MEASURED_ON": "UniProtKB P41594",
    "log10 of Ki": 0.95
  },
  {
    "SAMPLE_SMILES": "Cc1cc(C#N)cc(C(=O)Nc2ccnc(F)c2)n1",
    "MEASURED_ON": "UniProtKB P41594",
    "log10 of Ki": 1.52
  },
  {
    "SAMPLE_SMILES": "Cc1cc(C#N)cc(C(=O)Nc2nc(C)cs2)n1",
    "MEASURED_ON": "UniProtKB P41594",
    "log10 of Ki": 1.18
  },
  {
    "SAMPLE_SMILES": "Cc1cc(C#N)cc(C(=O)Nc2ccc(C#N)cn2)n1",
    "MEASURED_ON": "UniProtKB P41594",
    "log10 of Ki": 2.04
  },
  {
    "SAMPLE_SMILES": "Cc1cccc(NC(=O)c2cc(Cl)cc(C)n2)n1",
    "MEASURED_ON": "UniProtKB P41594",
    "log10 of Ki": 1.18
  },
  {
    "SAMPLE_SMILES": "Cc1cc(C#N)cc(C(=O)Nc2ccc(F)c(C)n2)n1",
    "MEASURED_ON": "UniProtKB P41594",
    "log10 of Ki": 1.76
  },
  {
    "SAMPLE_SMILES": "Cc1cc(Cl)cc(C(=O)Nc2nc(C)cs2)n1",
    "MEASURED_ON": "UniProtKB P41594",
    "log10 of Ki": 1.15
  },
  {
    "SAMPLE_SMILES": "Cc1cc(Br)cc(C(=O)Nc2ccc(F)c(C)n2)n1",
    "MEASURED_ON": "UniProtKB P41594",
    "log10 of Ki": 1.79
  },
  {
    "SAMPLE_SMILES": "Cc1ccc(NC(=O)c2cc(Cl)cc(C)n2)nc1",
    "MEASURED_ON": "UniProtKB P41594",
    "log10 of Ki": 2.04
  },
  {
    "SAMPLE_SMILES": "Cc1cc(C#N)cc(C(=O)Nc2cccc(Cl)n2)n1",
    "MEASURED_ON": "UniProtKB P41594",
    "log10 of Ki": 0.90
  },
  {
    "SAMPLE_SMILES": "N#Cc1cc(CO)nc(C(=O)Nc2cccc(Cl)c2)c1",
    "MEASURED_ON": "UniProtKB P41594",
    "log10 of Ki": 1.64
  },
  {
    "SAMPLE_SMILES": "Cc1cccc(NC(=O)c2cc(Cl)cc(C)n2)c1",
    "MEASURED_ON": "UniProtKB P41594",
    "log10 of Ki": 1.99
  },
  {
    "SAMPLE_SMILES": "Cc1cc(NC(=O)c2cc(C#N)cc(C)n2)ccn1",
    "MEASURED_ON": "UniProtKB P41594",
    "log10 of Ki": 2.00
  },
  {
    "SAMPLE_SMILES": "C#Cc1cc(C)nc(C(=O)Nc2ccn(C)n2)c1",
    "MEASURED_ON": "UniProtKB P41594",
    "log10 of Ki": 1.52
  },
  {
    "SAMPLE_SMILES": "Cc1cc(Cl)cc(C(=O)Nc2ccc(F)cn2)n1",
    "MEASURED_ON": "UniProtKB P41594",
    "log10 of Ki": 1.48
  },
  {
    "SAMPLE_SMILES": "Cc1cc(C#N)cc(C(=O)Nc2ccc(F)c(C)c2)n1",
    "MEASURED_ON": "UniProtKB P41594",
    "log10 of Ki": 1.86
  },
  {
    "SAMPLE_SMILES": "COc1cccc(NC(=O)c2cc(C#N)cc(C)n2)c1",
    "MEASURED_ON": "UniProtKB P41594",
    "log10 of Ki": 1.76
  },
  {
    "SAMPLE_SMILES": "Cc1cc(Br)cc(C(=O)Nc2ccc(F)cn2)n1",
    "MEASURED_ON": "UniProtKB P41594",
    "log10 of Ki": 1.57
  },
  {
    "SAMPLE_SMILES": "CCc1cc(C#N)cc(C(=O)Nc2ccn(C)n2)n1",
    "MEASURED_ON": "UniProtKB P41594",
    "log10 of Ki": 1.56
  }
]

---

Entries and their melting point values follow.
OUTCOME_MEASURE: melting point (°C)

[
  {
    "SAMPLE_SMILES": "Cc1cc(C#N)c(C)c(C(=O)Nc2ccc(F)c(C)n2)n1",
    "MEASUREMENT_UNIT": "°C",
    "RECORDED_VALUE": 201
  },
  {
    "SAMPLE_SMILES": "Cc1cc(Cl)cc(C(=O)Nc2ccn(C)n2)n1",
    "MEASUREMENT_UNIT": "°C",
    "RECORDED_VALUE": 203.5
  },
  {
    "SAMPLE_SMILES": "Cc1cc(C#N)cc(C(=O)Nc2ccn(C)n2)n1",
    "MEASUREMENT_UNIT": "°C",
    "RECORDED_VALUE": 201
  },
  {
    "SAMPLE_SMILES": "Cc1cc(C#N)c(C)c(C(=O)Nc2ccc(F)cn2)n1",
    "MEASUREMENT_UNIT": "°C",
    "RECORDED_VALUE": 196.5
  },
  {
    "SAMPLE_SMILES": "Cc1cc(C#N)cc(C(=O)Nc2ccc(F)c(Cl)c2)n1",
    "MEASUREMENT_UNIT": "°C",
    "RECORDED_VALUE": 204
  },
  {
    "SAMPLE_SMILES": "Cc1ccc(NC(=O)c2cc(C#N)cc(C)n2)nc1",
    "MEASUREMENT_UNIT": "°C",
    "RECORDED_VALUE": 196
  },
  {
    "SAMPLE_SMILES": "Cc1csc(NC(=O)c2nc(C)cc(C#N)c2C)n1",
    "MEASUREMENT_UNIT": "°C",
    "RECORDED_VALUE": 199.5
  }
]
